Biological target: UniProt O96220
Assay: IC50 for competition of protein binding to Kinobeads;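 further: native unpurified kinases from lysate captured on beads bearing immobilized kinase inhibitors, with bead-bound kinases quantified by mass spectrometry across compound doses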
Conditions: assay detail: Kinobeads competition in P. falciparum blood-stage lysate
pIC50: −log10 of the molar value.
readout-label: pIC50

Qu. Dear colleague, I am looking for the recorded pIC50 of the following compound: O=c1[nH]c2ccc(Cl)cc2c(NC2CN3CCC2CC3)c1-c1nc2ccccc2[nH]1 (stereo unspecified)
Ans. < 4.70

###

Molecular target: UniProt Q8IIH4
Assay: IC50 for competition of protein binding to Kinobeads
Conditions: assay detail: Kinobeads competition in P. falciparum blood-stage lysate
pIC50: −log10 of the molar value.
readout-label: pIC50

Qu. For O=c1[nH]c2ccc(Cl)cc2c(NC2CN3CCC2CC3)c1-c1nc2ccccc2[nH]1 (stereo unspecified) , what is its reported pIC50?
Ans. < 4.70

###

Target: UniProt Q8IJT1
Assay: IC50 for competition of protein binding to Kinobeads
Conditions: assay detail: Kinobeads competition in P. falciparum blood-stage lysate
readout-label: IC50

Qu. What is its IC50 for UniProt Q8IJT1? Entry: O=c1[nH]c2ccc(Cl)cc2c(NC2CN3CCC2CC3)c1-c1nc2ccccc2[nH]1 (stereo unspecified)
Ans. > 20 µM

###

Target: UniProt O96260
Assay: IC50 for competition of protein binding to Kinobeads
Conditions: assay detail: Kinobeads competition in P. falciparum blood-stage lysate
readout-label: IC50

Qu. Tell me the measured IC50 of O=c1[nH]c2ccc(Cl)cc2c(NC2CN3CCC2CC3)c1-c1nc2ccccc2[nH]1 (stereo unspecified) , please.
Ans. > 20 µM

###

Target: UniProt Q8I1Q9
Test: IC50 for competition of protein binding to Kinobeads
Conditions: assay detail: Kinobeads competition in P. falciparum blood-stage lysate
pIC50: −log10 of the molar value.
readout-label: pIC50

Qu. Give recorded pIC50 with UniProt Q8I1Q9 for the following molecule: O=c1[nH]c2ccc(Cl)cc2c(NC2CN3CCC2CC3)c1-c1nc2ccccc2[nH]1 (stereo unspecified) [CHIR-124]
Ans. < 4.70

###

Molecular target: UniProt O97247
Test: IC50 for competition of protein binding to Kinobeads
Details: assay detail: Kinobeads competition in P. falciparum blood-stage lysate
readout-label: IC50

Qu. Could you share which IC50 value was measured for O=c1[nH]c2ccc(Cl)cc2c(NC2CN3CCC2CC3)c1-c1nc2ccccc2[nH]1 (stereo unspecified) [CHIR-124] ?
Ans. > 20 µM

###

Molecular target: UniProt Q8ILC1
Sequence (Q8ILC1 whole entry): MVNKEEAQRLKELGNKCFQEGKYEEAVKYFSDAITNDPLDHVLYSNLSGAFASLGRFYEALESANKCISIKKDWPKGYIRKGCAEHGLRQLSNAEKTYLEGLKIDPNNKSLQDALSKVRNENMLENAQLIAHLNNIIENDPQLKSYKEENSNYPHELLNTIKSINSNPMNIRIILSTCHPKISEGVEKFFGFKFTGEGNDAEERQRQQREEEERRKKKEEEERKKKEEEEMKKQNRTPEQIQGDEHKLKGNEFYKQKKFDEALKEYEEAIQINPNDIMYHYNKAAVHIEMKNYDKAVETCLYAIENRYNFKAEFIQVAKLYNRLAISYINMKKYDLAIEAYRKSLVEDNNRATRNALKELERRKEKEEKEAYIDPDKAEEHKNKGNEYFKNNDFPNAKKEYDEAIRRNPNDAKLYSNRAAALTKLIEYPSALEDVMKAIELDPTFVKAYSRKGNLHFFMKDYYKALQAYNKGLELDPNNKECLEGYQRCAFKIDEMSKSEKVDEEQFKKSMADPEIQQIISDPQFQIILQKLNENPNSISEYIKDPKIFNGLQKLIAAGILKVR
Test: IC50 for competition of protein binding to Kinobeads
Settings: assay detail: Kinobeads competition in P. falciparum blood-stage lysate
pIC50: −log10 of the molar value.
readout-label: pIC50

Qu. # pIC50 lookup, item O=c1[nH]c2ccc(Cl)cc2c(NC2CN3CCC2CC3)c1-c1nc2ccccc2[nH]1 (stereo unspecified)
Ans. < 4.70

###

Target: UniProt Q8IKM5
Assay: IC50 for competition of protein binding to Kinobeads
Details: assay detail: Kinobeads competition in P. falciparum blood-stage lysate
readout-label: IC50

Qu. State the recorded IC50 for this entry: O=c1[nH]c2ccc(Cl)cc2c(NC2CN3CCC2CC3)c1-c1nc2ccccc2[nH]1 (stereo unspecified) [CHIR-124]
Ans. > 20 µM

###

Molecular target: UniProt Q8IDG3
Assay: IC50 for competition of protein binding to Kinobeads
Conditions: assay detail: Kinobeads competition in P. falciparum blood-stage lysate
pIC50: −log10 of the molar value.
readout-label: pIC50

Qu. Record O=c1[nH]c2ccc(Cl)cc2c(NC2CN3CCC2CC3)c1-c1nc2ccccc2[nH]1 (stereo unspecified) : what is its pIC50 with UniProt Q8IDG3?
Ans. < 4.70
